test system: HCT-116 colon; experiment: NCI tumour cell line growth inhibition, 48 h
reportedEndpoint: TGI (µM)
One number for each entry, in µM.

molecule: C=C(CN1CCc2ccccc2C1)c1ccc(C(=O)Nc2cccc(N)c2)cc1
unitSpec: µM
TGI: 33.5

// moving on: another record for TGI
Qu. Query: TGI; subject: CC(=O)Nc1ccc(S(=O)(=O)N2C(=O)CCC2C(=O)Nc2ccccc2)cc1 (stereo not given)
Ans. 20

----------
tested on: CAKI-1 renal; experiment: NCI tumour cell line growth inhibition, 48 h
Please provide measured GI50 for the entries that follow.

Below are worked cases with known answers.
molecule: COc1cc(F)c(F)c(F)c1C(=O)c1cnc(NC2CCN(S(C)(=O)=O)CC2)nc1N
result: 0.843 µM
--
molecule: O=c1[nH]c(-c2ccncc2)nc2sc3c(c12)CCCCCC3
result: > 100 µM
--
molecule: Nc1nc(N)c2nc(CNc3ccc(C(=O)NC(CCC(=O)O)C(=O)O)cc3)cnc2n1 (stereo not given)
result: < 0.01 µM
--
molecule: Cc1ccc(CNc2ccc(Cl)cc2NCc2ccc(C)c(O)c2)cc1O
result: 7.39 µM
--
molecule: NC1=Nc2cc(OCCCCN3Cc4ccccc4C3)c(OCC3CC3)cc2C12CCCC2
result: 2.1 µM

# per-item lookup of GI50; items listed below
1. COc1ccc(-c2cc(-c3ccc(Cl)cc3)c(C#N)c(=O)n2CCCCCC(=O)Nc2ccccc2N)cc1
2. CN(C)CCCn1c2c(c3ccc(N4CCNCC4)cc3c1=O)C(=O)c1ccccc1-2
3. OC1(c2ccccc2)c2ccccc2N(c2ccccc2)c2ccc(Cl)cc21 (stereo not given)
4. CC1(C)N=C(N)N=C(N)N1c1cccc(CC(=O)Nc2ccccc2)c1
5. Nc1nc(-c2ccccn2)c(-c2ccc3ncccc3n2)s1

Ans.
2.04 µM
1.05 µM
0.257 µM
> 100 µM
> 25 µM

----------
What TGI was measured for each of the following?
system: NCI-H522 lung; assay: NCI tumour cell line growth inhibition, 48 h
One number for each entry, in µM.

These recorded examples may help you get a feel for the data.
chemicalStructure: Cn1c2ccccc2n2c3ccccc3c3nnc(N)c-3c12
numericReadout: 26.2

chemicalStructure: CCN(CC)c1ccc(C=C2C(=O)NC(=S)NC2=O)cc1
numericReadout: 4.29

chemicalStructure: O=C1C/C(=C\c2ccccc2)C(=O)c2ccccc2N1
numericReadout: 51.9

Next compound, TGI to be filled in.
Qu. State the recorded TGI for this entry: `COc1cc(-c2nn(-c3cccc(NC(=O)NCCNC(=O)c4ccccc4)c3)cc2-c2ccncc2)ccc1Cl`
Ans. 7.37

----------
tested on: HOP-92 NSCLC; experiment: NCI tumour cell line growth inhibition, 48 h
I would appreciate it if you labelled entries 1.0 when TGI is 10 µM or higher, otherwise 0.0.

Solved entries:
molecule: O=[N+]([O-])C1=Cc2c(O)ccc(O)c2C2c3ccccc3NC12 (stereo not given)
classLabel: 1.0
//
molecule: O=C(CC1(O)C(=O)Nc2ccc(Br)cc21)c1cccc([N+](=O)[O-])c1 (stereo not given)
classLabel: 1.0
//
molecule: CC1CC(=O)C(CC(=O)O)[C@H]1C(C(=O)C(=O)Nc1cc(Cl)ccc1Cl)[N+](=O)[O-] (stereo not given in full)
classLabel: 1.0
//
molecule: COc1ccc(N(c2ccc(C#N)cc2)c2ccc(C#N)cc2)cc1
classLabel: 1.0
//
molecule: Nc1cc2c(C3OC(CO)C(O)C3O)[nH]nc2c(=S)[nH]1 (stereo not given)
classLabel: 1.0

Qu. Test whether the molecule CC(=O)OCC1OC(Sc2nc(-c3ccccc3)c(C#N)c(=O)n2C2OC(COC(C)=O)C(OC(C)=O)C(OC(C)=O)C2OC(C)=O)C(OC(C)=O)C(OC(C)=O)C1OC(C)=O (stereo not given) records TGI of 10 µM or higher.
Ans. 1.0

Qu. And for `CCOc1ccc(-c2nc3ccc(-c4nc5ccc(N6CCN(C)CC6)cc5[nH]4)cc3[nH]2)cc1OCC` ?
Ans. 0.0

Qu. Next entry: `CCN(CC)CCN1C(=O)c2cccc3cc(N)cc(c23)C1=O`
Ans. 1.0

Qu. Now consider `CCOC(=O)c1c2ccccc2n2c(=O)n(-c3ccccc3)nnc12` .
Ans. 1.0

Qu. Param item: `CC(C)c1c(C(=O)Nc2ccccc2)c(-c2ccccc2)c(-c2ccc(F)cc2)n1CC[C@@H](O)C[C@@H](O)CC(=O)O`
Ans. 0.0

Qu. Okay, and O=c1ccn([C@@H]2C[C@H](CO)CS(=O)C2)c(=O)[nH]1 (stereo not given in full) ?
Ans. 1.0

Qu. Also need `O=C(c1ccccc1)N1CCc2c([nH]c3ccccc23)C1` , thanks.
Ans. 1.0

----------
tested on: MDA-MB-435
Answer with one of the outcomes given here: active, inactive

Worked cases, answers included:
compound: COc1cccc(-c2cc(-c3ccc(Nc4nc(Nc5ccc(Cl)cc5)nc(Nc5ccc(Cl)cc5)n4)cc3)nc(N)c2C#N)c1
classLabel: inactive
//
compound: O=c1[nH]c2c(ccc3cnccc32)c2c1CCC2
classLabel: active
//
compound: C=C1C(=O)O[C@H]2[C@H]1CC/C(COC(=O)NCc1ccc(Cn3c(=O)sn(CCCI)c3=O)cc1)=C\CC[C@@]1(C)O[C@@H]21
classLabel: inactive
//
compound: COc1cc(F)c(F)c(F)c1C(=O)c1cnc(NC2CCN(S(C)(=O)=O)CC2)nc1N
classLabel: inactive
//
compound: CCn1nc(C#Cc2c(C)ccc3c(Nc4ccc(Cl)cc4)nccc23)c2c(N)ncnc21
classLabel: inactive
//
compound: CCc1ccc2cc3c(ccc4ccccc43)c3c2c1CC3
classLabel: inactive

Qu. Each compound tested received a call. Report the one for `COc1cc(-c2nn(-c3cccc(NC(=O)NCCNC(=O)c4ccccc4)c3)cc2-c2ccncc2)ccc1Cl` .
Ans. inactive

Qu. Param item: `CC/C(=C\c1ccc(N(C)C)cc1)c1ccncc1`
Ans. inactive

Qu. Then `CC[C@@]12CC(C(=O)OC)=C3Nc4ccccc4[C@@]34CCN(C[C@H]3O[C@H]31)[C@@H]24` ?
Ans. inactive

Qu. COc1ccc2c(c1)OCC1c3cc(OC)ccc3OC21 (stereo not given) ?
Ans. inactive

----------
tested on: KM12 colon; experiment: NCI tumour cell line growth inhibition, 48 h
Assign TGI to each entry below.
One number for each entry, in µM.

chemicalStructure: O[C@@H]1CCCCN1Cc1cc2cc3c(cc2c2cc(OCc4ccccc4)ccc12)OCO3
testedOn: KM12 colon
reportedEndpoint: TGI
numericReadout: 3.16

Provide each entry's TGI from the list below.
1. COc1ccc2nc3cc(Cl)ccc3c(NCCCN(C)CCCNc3ccc4ncn5c6ccccc6c(=O)c3c45)c2c1
2. CCCCCCCCCCCCOC(=N)N1CCOCC1

Ans.
[4.99, 19.3]

Hi, could you look up TGI for each item in my list?
1. O=c1c2cc(F)ccc2sc2c(NCCCNCCO)nc3ccc(F)cc3c12
2. CCC[CH2][Sn]1([CH2]CCC)[O]C(=O)c2cccnc2[S]1

Ans.
3.58
19.6

----------
system: NCI-H226 lung; test: NCI tumour cell line growth inhibition, 48 h
reportedEndpoint: TGI

Please review the entries below; each comes with its answer.
compound: CC(C)OP(=O)(OC(C)C)C(=Nc1ccc(N=C(NNc2ccc([N+](=O)[O-])cc2)P(=O)(OC(C)C)OC(C)C)cc1)NNc1ccc([N+](=O)[O-])cc1
reportedEndpoint: TGI
result: > 100 µM
//
compound: N#CSc1c[nH]c2cccc(/C=C/C(=O)/C=C(O)/C=C/c3cccc4[nH]cc(SC#N)c34)c12
reportedEndpoint: TGI
result: 1.34 µM
//
compound: COc1cc2nc(NC3CCC3)nc(NC3CCN(C(C)C)CC3)c2cc1OC
reportedEndpoint: TGI
result: 21.8 µM
//
compound: CC(C)CCNC(=O)c1ccc(CNC(=O)/C=C/c2ccc3c(c2)-c2ccccc2C3)cc1
reportedEndpoint: TGI
result: > 100 µM
//
compound: CN(C)CCC(C#N)(c1ccccc1)c1ccccc1
reportedEndpoint: TGI
result: > 100 µM

# batch: return TGI for each of the 4 compounds below
1. COc1cc(/C=C2\C(=O)Nc3ccc(O)cc32)cc(OC)c1OC
2. N#CC1(C2CC(=O)N(c3ccccc3)C2=O)CCCCC1=O (stereo not given)
3. O=c1[nH]nc(Nc2ccc(Cl)cc2)c2nnn(-c3ccc([N+](=O)[O-])cc3)c12
4. O=c1[nH]c2c(ccc3cnccc32)c2c1CCC2

Ans.
54.4 µM
> 100 µM
> 100 µM
0.897 µM

Each compound below has a recorded value; state its TGI.
1. Cc1ccc(Nc2nc3ccccc3nc2NS(=O)(=O)c2ccc(N)cc2)cc1
2. CC(C)C1CC(CO)(CNc2nc(N)nc(Cl)c2C=O)C1 (stereo not given)
3. CCOc1cc(NC(C)=O)ccc1C(=O)NN1C(=O)/C(=C/c2ccc(Cl)cc2)N=C1c1ccccc1

Ans.
["> 100 µM", "26.3 µM", "> 100 µM"]
